Ref: ChEMBL document CHEMBL3433997

Assign inhibition to each entry below.
- measurement_target: Solute carrier family 2, facilitated glucose transporter member 1 (Homo sapiens)
- assay_summary: ST_JUDE_LEISH: Cytotoxicity at 2uM final concentration against transgenic Leishmania Mexicana promastigotes LmGLUT1 that are glucose transport deficient and complemented with the human glucose transporter GLUT1. Activity is measured by DNA content using SYBR green in vitro
- Type: functional
Report only the number, with the unit % understood.

Challenge: Given Cn1c(N)cc(-c2ccc(Br)cc2)c2c(=O)nc(N)nc1-2 , state its recorded inhibition.
Response given: 6.75

Challenge: So what's the measured inhibition for this one? CC(C)N1CCN(c2ccc(OCCCCN3CCN(c4cccc(Cl)c4Cl)CC3)cc2Cl)CC1
Response given: -1.28

Challenge: Report inhibition for CCNc1cc(C)nc(Nc2ccc(NC(=O)c3ccccc3Br)cc2)n1 please.
Response given: 8.09

Challenge: Requested read-out: inhibition. Entry: CCOc1ccc(C(=O)Nc2cc(Br)c3c(c2)CNCC3)cc1C(F)(F)F
Response given: -0.39

Challenge: Look at this molecule and give its reported inhibition. COc1ccc(CC2(c3ccc(F)cc3)N=C(N)N(CCCc3ccccc3)C2=O)cc1 (stereo unspecified)
Response given: 5.85

Challenge: Give its inhibition value. Item: CN(c1ncc(-c2cccc(CNCc3ccccc3O)c2)cn1)C1CCCCC1
Response given: -1.25

Challenge: May I ask what inhibition has been recorded for NC1=NC(Cc2ccccc2)N(c2ccc(Cl)cc2)C(N)=N1 (stereo unspecified) ?
Response given: 8.89

Challenge: Which measured inhibition value corresponds to CC(C)NCc1ccc(-c2cccc(NC(=O)c3ccc(C#N)cc3)c2)cc1 ?
Response given: 6.75

Challenge: So what does the record say about inhibition for O=C(/C=C/c1ccc(C(F)(F)F)cc1)NCCCCCN1CCCN(C(=O)Nc2cccc(Cl)c2)CC1 ?
Response given: -0.19

Challenge: Given the entry Cc1ccc(NC(=O)NC2CCN(CCCCCNC(=O)/C=C/c3ccc(Cl)c(Cl)c3)CC2)cc1 , report its measured inhibition.
Response given: 0.42

Challenge: Would you mind telling me what inhibition value was observed for Cc1ccc(-c2cnc(N)c3cc(-c4ccnc(N)n4)ccc23)cc1 ?
Response given: -0.17

Challenge: What value of inhibition has been reported for the following molecule? CCCC(C)NC(=O)[C@H](Cc1ccccc1)NC(=O)c1ccc(O)c(-c2ccc(OC)cc2)c1 (stereo partly specified)
Response given: 4.38

Challenge: What inhibition value was documented for this molecule, COc1ccc2ncc(F)c(CCN3CC[C@@H](CNCc4ccc5c(c4C)OCCO5)C3)c2n1 ?
Response given: 27.8

Challenge: Field request: inhibition | item: CS(=O)(=O)Nc1ccc(-c2cnc3[nH]cc(-c4ccc(C(=O)O)cc4)c3c2)cc1
Response given: 8.98

Challenge: Report inhibition for CCCCC(CC)NC(=O)[C@H]1CNCCN1C(=O)CCCc1ccccc1 (stereo partly specified) please.
Response given: 1.73

Challenge: inhibition lookup needed for COc1ccc2c(=NN=Cc3ccncc3)cc(C)[nH]c2c1 , thanks.
Response given: 4.05

Challenge: Requested field: inhibition. Item: Cc1cc(NC(=O)Nc2ccc3ncccc3c2)c2ccccc2n1
Response given: 4.47

Challenge: Given the molecule O=C(Nc1ccc(CN2CCOCC2)cc1)c1ccc(-c2cc(Cl)ccc2Cl)o1 , what is its reported inhibition?
Response given: 11

Challenge: GET /values?readout=inhibition&item= COc1ccc(-c2nc(NC(=O)CS(=O)(=O)c3ccc(F)cc3)sc2C)cc1
Response given: 8.03

Challenge: Quick one: inhibition for CCCCCOc1c(CCC)cc(Cc2cnc(N)nc2N)cc1CCC ?
Response given: 14.7

Challenge: // lookup inhibition for COc1ccc(-c2cccc(NC(=O)c3cccc(Cl)c3)c2)cc1CNC(C)C
Response given: 1.6
